Target: glucosylceramide synthase (GCS) (Homo sapiens, UniProt Q16739)
Construct: The obtained supernatant was used
Sequence (Q16739 1-394): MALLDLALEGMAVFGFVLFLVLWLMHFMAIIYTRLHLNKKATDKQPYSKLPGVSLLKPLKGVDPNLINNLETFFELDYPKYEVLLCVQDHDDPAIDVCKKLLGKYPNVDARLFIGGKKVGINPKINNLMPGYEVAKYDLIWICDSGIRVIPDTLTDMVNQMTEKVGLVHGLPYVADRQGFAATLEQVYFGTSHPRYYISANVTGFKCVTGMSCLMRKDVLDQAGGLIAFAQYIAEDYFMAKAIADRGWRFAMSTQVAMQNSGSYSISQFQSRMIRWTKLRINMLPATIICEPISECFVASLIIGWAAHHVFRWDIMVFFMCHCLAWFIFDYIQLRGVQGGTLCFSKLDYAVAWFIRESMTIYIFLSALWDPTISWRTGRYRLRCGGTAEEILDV
Test: GCS enzyme inhibition assay (A549 cell lysate, NBD C6-ceramide, HPLC fluorescence)
Conditions: inhibitory activity against GCS, 37° C., 90 minutes
MEASURED PROPERTY: pIC50
# reply with the number alone; pIC50 is -log10 of concentration in mol/L

Quick check: pIC50 on glucosylceramide synthase (GCS) (Homo sapiens, UniProt Q16739), item CC(C)Oc1ccc(-c2cc3c(cc2F)C(NC(=O)O[C@@H]2CN4CCC2CC4)C(C)(C)CO3)cn1 (some centres unmarked) [Example 348] ?
9.62

Quick check: pIC50 on glucosylceramide synthase (GCS) (Homo sapiens, UniProt Q16739), item COc1ccc(Cl)c(-c2ccc3c(c2)OCCC3NC(=O)O[C@@H]2CN3CCC2CC3)c1 (some centres unmarked) [Example 65] ?
9.66

Quick check: pIC50 on glucosylceramide synthase (GCS) (Homo sapiens, UniProt Q16739), item C=CCc1ccccc1-c1ccc2c(c1)OCC(C)(C)C2NC(=O)O[C@@H]1CN2CCC1CC2 (some centres unmarked) [Example 279] ?
9.14

Quick check: pIC50 on glucosylceramide synthase (GCS) (Homo sapiens, UniProt Q16739), item CC1(C)COc2cc(/C=C/c3ccc(-c4ccccc4)cc3)ccc2C1NC(=O)O[C@@H]1CN2CCC1CC2 (some centres unmarked) [Example 282] ?
8.79

Quick check: pIC50 on glucosylceramide synthase (GCS) (Homo sapiens, UniProt Q16739), item O=C(NC1CCOc2cc(-c3ccc(N4CCOCC4)c(F)c3)ccc21)O[C@@H]1CN2CCC1CC2 (some centres unmarked) [Example 77] ?
8.48

Quick check: pIC50 on glucosylceramide synthase (GCS) (Homo sapiens, UniProt Q16739), item O=C(NC1CCSc2cc(-c3cccc(Cl)c3)ccc21)O[C@@H]1CN2CCC1CC2 (some centres unmarked) [Example 318] ?
8.89

Quick check: pIC50 on glucosylceramide synthase (GCS) (Homo sapiens, UniProt Q16739), item CC1(C)COc2cc(-c3ccc(F)c(F)c3F)ccc2C1NC(=O)O[C@@H]1CN2CCC1CC2 (some centres unmarked) [Example 217] ?
9.26

Quick check: pIC50 on glucosylceramide synthase (GCS) (Homo sapiens, UniProt Q16739), item COc1cncc(-c2ccc3c(c2)OCCC3NC(=O)O[C@@H]2CN3CCC2CC3)c1 (some centres unmarked) [Example 79] ?
8.59

---

Answer each item with its documented log10(IC50).
Target: glucosylceramide synthase (GCS) (Homo sapiens, UniProt Q16739)
Construct: The obtained supernatant was used; host or cells: A549 cells (lysate supernatant after sonication)
Test: GCS enzyme inhibition assay (A549 cell lysate, NBD C6-ceramide, HPLC fluorescence)
Type: biochemical
Conditions: inhibitory activity against GCS, 37° C., 90 minutes
Please keep in mind that the values are log10 of IC50 expressed in nM.

Quick check: log10(IC50) on glucosylceramide synthase (GCS) (Homo sapiens, UniProt Q16739), item O=C(NC1CCOc2cc(-c3cc(Cl)cc(C(F)(F)F)c3)ccc21)O[C@@H]1CN2CCC1CC2 (stereo partly shown) ?
0.29

Quick check: log10(IC50) on glucosylceramide synthase (GCS) (Homo sapiens, UniProt Q16739), item CC1(C)COc2cc(-c3cccc4[nH]ncc34)ccc2C1NC(=O)O[C@@H]1CN2CCC1CC2 (stereo partly shown) ?
-0.06

Quick check: log10(IC50) on glucosylceramide synthase (GCS) (Homo sapiens, UniProt Q16739), item COc1ccc(-c2ccc3c(c2)OCC(C)(C)C3NC(=O)O[C@@H]2CN3CCC2CC3)cc1C (stereo partly shown) ?
0.27

Quick check: log10(IC50) on glucosylceramide synthase (GCS) (Homo sapiens, UniProt Q16739), item CC1(C)COc2cc(-c3ccc(C(F)(F)F)cc3F)ccc2C1NC(=O)O[C@@H]1CN2CCC1CC2 (stereo partly shown) ?
-0.28

Quick check: log10(IC50) on glucosylceramide synthase (GCS) (Homo sapiens, UniProt Q16739), item CC1(C)COc2cc(-c3ccc(C4CC4)cc3)ccc2C1NC(=O)O[C@@H]1CN2CCC1CC2 (stereo partly shown) ?
-0.42

Quick check: log10(IC50) on glucosylceramide synthase (GCS) (Homo sapiens, UniProt Q16739), item CC1(C)CC(NC(=O)O[C@@H]2CN3CCC2CC3)c2cc(-c3cccc(F)c3)ccc2O1 (stereo partly shown) ?
2.16

Quick check: log10(IC50) on glucosylceramide synthase (GCS) (Homo sapiens, UniProt Q16739), item CCc1ccc(-c2ccc3c(c2)OCC(C)(C)C3NC(=O)O[C@@H]2CN3CCC2CC3)cc1 (stereo partly shown) ?
-0.34

Quick check: log10(IC50) on glucosylceramide synthase (GCS) (Homo sapiens, UniProt Q16739), item COc1ccc(-c2ccc3c(c2)OCC(C)(C)C3NC(=O)O[C@@H]2CN3CCC2CC3)cc1C(F)(F)F (stereo partly shown) [Example 188] ?
-0.12

Quick check: log10(IC50) on glucosylceramide synthase (GCS) (Homo sapiens, UniProt Q16739), item CN(C)c1cccc(-c2ccc3c(c2)OCCC3NC(=O)O[C@@H]2CN3CCC2CC3)c1 (stereo partly shown) ?
-0.28

Quick check: log10(IC50) on glucosylceramide synthase (GCS) (Homo sapiens, UniProt Q16739), item COc1cccc(Cl)c1-c1ccc2c(c1)OCC(C)(C)C2NC(=O)O[C@@H]1CN2CCC1CC2 (stereo partly shown) ?
0.43

Quick check: log10(IC50) on glucosylceramide synthase (GCS) (Homo sapiens, UniProt Q16739), item CC1(C)COc2cc(-c3ccc(Cl)cc3Cl)ccc2C1NC(=O)O[C@@H]1CN2CCC1CC2 (stereo partly shown) ?
-0.07

Quick check: log10(IC50) on glucosylceramide synthase (GCS) (Homo sapiens, UniProt Q16739), item O=C(NC1CCOc2cc(-c3ccccc3F)ccc21)O[C@@H]1CN2CCC1CC2 (stereo partly shown) ?
0.26

Quick check: log10(IC50) on glucosylceramide synthase (GCS) (Homo sapiens, UniProt Q16739), item CC1(C)COc2cc(-c3cccc(C(F)(F)F)c3Cl)ccc2C1NC(=O)O[C@@H]1CN2CCC1CC2 (stereo partly shown) ?
-0.20

Quick check: log10(IC50) on glucosylceramide synthase (GCS) (Homo sapiens, UniProt Q16739), item CC1(C)COc2cc(-c3ccc4ncccc4c3)ccc2C1NC(=O)O[C@@H]1CN2CCC1CC2 (stereo partly shown) ?
0.19

Quick check: log10(IC50) on glucosylceramide synthase (GCS) (Homo sapiens, UniProt Q16739), item CC(C)COc1ccc(-c2cc3c(cc2F)C(NC(=O)O[C@@H]2CN4CCC2CC4)C(C)(C)CO3)cc1 (stereo partly shown) ?
-0.64

Quick check: log10(IC50) on glucosylceramide synthase (GCS) (Homo sapiens, UniProt Q16739), item CC1(C)COc2cc(-c3ccc4c(c3)CCO4)ccc2C1NC(=O)O[C@@H]1CN2CCC1CC2 (stereo partly shown) ?
-0.30
